Test system: Inhibin beta A chain (activin A)
Assay: INHBA (activin A) binders on microarrays, primary screen, biochemical, small-molecule microarray, 635 nm fluorescence scan (AID 1107);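 further: mouse activin A protein probed at 4.33 µg/mL on printed slides; score merges bound-protein fluorescence near 667 nm with spot signal-to-noise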
Conditions: small-molecule microarray binding, higher = more signal
Measured composite z-score values are reported for all entries that follow.

These solved cases illustrate the format of a correct answer.
structure.as.smiles	reported.result
CN(C)C(=O)[C@]1(CCS(=O)(=O)c2ccccc2)N=C(c2ccc(OCCCO)cc2)O[C@@H]1c1ccccc1N=[N+]=[N-]	1.33
C=C(COC)/C(=C/C[C@H](OC(=O)c1ccncc1)c1ccccc1OCCO)c1cnc2ccccc2c1	1.54
O=C(N1CCCCC1)[C@@]1(CCS(=O)(=O)c2ccccc2)COC(c2ccc(OCCCO)cc2)=N1	1.21

Q: Please list composite z-score recorded for the compound "C#CCN([C@@H](Cc1ccc(O)cc1)C(=O)OC)[C@@H](/C=C/C1CC1)[C@H](O)Cc1ccccc1"
Ans: 0.644

###

Test: compound binding in COS7 lysate, probe aLAP1, primary screen, cell lysate, small-molecule microarray (AID 1124);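 further: lysate comes from COS7 cells expressing LAP1 and is applied at 0.3 µg/mL; score merges spot fluorescence near 667 nm with signal-to-noise over triplicate slides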
Details: probe aLAP1, fluorescence, higher = more signal
composite z-score of 0.07 or higher: Criterion met. Under 0.07: Criterion not met.

Use these answered entries as a reference point.
compound	label
CC(C)N1C(=O)C[C@@](C(=O)NCCCN(C)C)(c2ccc([N+](=O)[O-])cc2)[C@H]1c1ccc(CO)cc1	Criterion not met
C=CCC(OC(C)=O)[C@@H]1[C@@H](N(Cc2ccc(-c3cccc(C(F)(F)F)c3)o2)C(=O)c2ccc(C)cc2)c2cc(OCCCO)ccc2N1C(=O)c1ccc2ccccc2c1 (some centres undefined)	Criterion not met
COCCOC(=O)N1C(=O)[C@@]2(c3ccccc31)[C@H](C(=O)N1CCN(c3ncccn3)CC1)[C@H]1C(=O)O[C@H](c3ccccc3)[C@H](c3ccccc3)N1[C@@H]2c1ccc(O)cc1	Criterion met
CCCC[C@@H]1C[C@H]1[C@@H](NC(=O)c1cccs1)c1ccc(C(F)(F)F)cc1	Criterion not met
O=C1OCCC=C[C@H]2OC34C=CCN(Cn5nnc6ccccc65)C(=O)[C@H]3N(CCCCCCO)C(=O)[C@@H]4C12 (some centres undefined)	Criterion met
C=C(COC)/C(=C/C[C@H](OC(C)=O)c1ccc(OCCO)cc1)c1cc(C(=O)OC)ccc1OC	Criterion not met

Q: Has "[N-]=[N+]=Nc1ccccc1C[C@]1(C(N)=O)N=C(c2ccc(OCCCO)cc2)O[C@H]1c1ccccc1N=[N+]=[N-]" a recorded composite z-score greater than or equal to 0.07?
Ans: Criterion met

Q: Has "CCCCCCc1nc(C2CC2)cc2c1[Si](C(C)C)(C(C)C)OC2" a recorded composite z-score greater than or equal to 0.07?
Ans: Criterion not met

Q: Has C=CCC(OC(C)=O)[C@@H]1[C@@H](N(Cc2cccc3ccccc23)C(=O)c2cccc3ccccc23)c2cc(OCCCO)ccc2N1C(=O)c1ccc(-c2ccccc2)cc1 (some centres undefined) a recorded composite z-score greater than or equal to 0.07?
Ans: Criterion not met

Q: Has "CCOC(=O)C[C@H]1[C@H](OC(=O)c2ccccc2-c2ccccc2)[C@@H](NC(=O)c2ccc(-c3ccccc3)cc2)c2cc(OCCCO)ccc2N1C(=O)c1ccc2ccccc2n1" a recorded composite z-score greater than or equal to 0.07?
Ans: Criterion met

Q: Has "COCCOC(=O)N1C(=O)[C@@]2(c3cc(C#CC4=CCCCC4)ccc31)[C@H](c1ccccc1OCCO)N1[C@H](c3ccccc3)[C@H](c3ccccc3)OC(=O)[C@H]1[C@@H]2C(=O)N1CCCCCCC1" a recorded composite z-score greater than or equal to 0.07?
Ans: Criterion met

Q: Has "[N-]=[N+]=Nc1ccccc1[C@H]1OC(c2ccc(OCCCO)cc2)=N[C@@]1(Cc1ccccc1)C(=O)N1CCCCC1" a recorded composite z-score greater than or equal to 0.07?
Ans: Criterion met

Q: Has C=C(C)C1CCC(C(O)C2C=CC3C(=O)N(C)C(=O)C3N2N2CCCCC2)CC1 (centres undefined) a recorded composite z-score greater than or equal to 0.07?
Ans: Criterion met

Q: Has "COCCCNC(=O)[C@@]1(Cc2ccccc2N=[N+]=[N-])COC(c2ccc(OCCCO)cc2)=N1" a recorded composite z-score greater than or equal to 0.07?
Ans: Criterion met

###

Test: small-molecule microarray binders of probe aNog, primary screen, biochemical, biotinylated probe, 635/667 nm fluorescence (AID 1115);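 further: probe is biotinylated aNog protein used at 0.15 µg/mL for 1 h at 4 C; z-score combines 667 nm fluorescence of each spot with its signal to noise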
Details: higher = more signal
observable: composite z-score

structure.as.smiles	composite z-score
C=CCN1C(=O)[C@@]2(CCS(=O)(=O)c3ccccc3)N=C(c3ccc(OCCCO)cc3)O[C@H]2c2ccccc21	0.906
COc1ccc(CCNC(=O)[C@@]2(Sc3ccc(C)cc3)CC(=O)N(C3Cc4ccccc4C3)[C@@H]2c2ccc(CO)cc2)cc1	0.557
[N-]=[N+]=Nc1ccccc1C[C@]1(C(N)=O)N=C(c2ccc(OCCCO)cc2)O[C@H]1c1ccccc1N=[N+]=[N-]	1.03
CC(C)(C)OC(=O)CC[C@]1(C(=O)NCc2ccccc2)N=C(c2ccc(OCCCO)cc2)O[C@H]1c1ccccc1CN=[N+]=[N-]	-0.0768

Q: Please list composite z-score recorded for the compound "COCCCNC(=O)[C@@]1(Sc2ccc(C)cc2)CC(=O)N(C2CCCCC2)[C@@H]1c1ccc(CO)cc1"
Ans: 0.684

Q: Please list composite z-score recorded for the compound "COCCCNC(=O)[C@]1(CCS(=O)(=O)c2ccccc2)N=C(c2ccc(OCCCO)cc2)O[C@@H]1c1ccccc1CN=[N+]=[N-]"
Ans: 1.54

Q: Please list composite z-score recorded for the compound "Cc1ccc(S[C@]2(C(=O)NCC(F)(F)F)CC(=O)N(C3CCCCC3)[C@@H]2c2ccc(CO)cc2I)cc1"
Ans: -0.422

###

Assay: small-molecule microarray binders of probe aNog, primary screen, biochemical, biotinylated probe, 635/667 nm fluorescence (AID 1115);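 further: probe is biotinylated aNog protein used at 0.15 µg/mL for 1 h at 4 C; z-score combines 667 nm fluorescence of each spot with its signal to noise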
Settings: higher = more signal
composite z-score of 0.08 or higher: t. Under 0.08: f.

compound	label
CN1C(=O)C2C=CC(C(O)COCc3ccccc3)N(N(c3ccccc3)c3ccccc3)C2C1=O (centres undefined)	t
COCCCNC(=O)[C@@]1(Cc2ccccc2N=[N+]=[N-])N=C(c2ccc(OCCCO)cc2)O[C@H]1c1ccccc1	t
COC(=O)[C@@]1(Cc2ccc(OC)cc2)[C@H]2c3cc(C(=O)N4CCCC4)n(Cc4cccc5ccccc45)c3C[C@H]2CN1C(=O)c1ccccc1	t
CCOC(=O)C[C@H]1[C@H](OC(=O)c2cc3ccccc3oc2=O)[C@@H](NC(=O)Cc2ccc(OC)cc2)c2cc(OCCCO)ccc2N1C(=O)c1ccc2ccccc2n1	f

Please examine the following record next.
Q: Has C=CCC(OC(C)=O)[C@@H]1[C@@H](N(Cc2ccc(-c3ccccc3)cc2)C(=O)Cc2ccc(F)cc2)c2cc(OCCCO)ccc2N1C(=O)Cc1ccc(OC)cc1 (some centres undefined) a recorded composite z-score greater than or equal to 0.08?
Ans: f

###

Measured composite z-score values are reported for all entries that follow.
Assay: small-molecule microarray binders of probe aEGFR, primary screen, biochemical, biotinylated probe, 635/667 nm fluorescence (AID 1097);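 further: probe is a biotinylated anti-EGFR antibody binding compounds printed on slides; score combines fluorescence near 667 nm and signal to noise of each spot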
Details: higher = more signal

structure.as.smiles	reported.result
C=CCOC(=O)[C@H]1[C@@H]2C(=O)O[C@@H](c3ccccc3)[C@@H](c3ccccc3)N2[C@@H](c2ccc(OCCOC(=O)[C@@H]3C[C@@H]4C(=O)N5CCC[C@H]5C(=O)N4[C@@H]3c3ccc(O)cc3)cc2)[C@]12C(=O)Nc1ccc(I)cc12	-0.194
CCC[C@@H]1C[C@@]1(CCC)[C@@H](NC(=O)OCc1ccccc1)c1ccc(-c2ccccc2)cc1	-0.186
C[C@@H]1ON(c2ccc(C(=O)OC(C)(C)C)cc2)[C@H](c2ccc(O)cc2)[C@H]1C(=O)N1C(=O)OC[C@H]1Cc1ccccc1	-0.0333
CC(C)N1C(=O)c2ccccc2[C@@H](C(=O)NC2CC2)[C@@H]1c1ccc(CO)cc1	-0.156
O=C1O[C@H](c2ccccc2)[C@H](c2ccccc2)N2[C@H]1[C@@H](C(=O)N1CCN(c3ncccn3)CC1)[C@]1(C(=O)Nc3ccc(C#CC4(O)CCCCCC4)cc31)[C@H]2c1ccc(OCCO)cc1	0.471

Q: Please list composite z-score recorded for the compound "COC(=O)[C@@]1(Cc2ccccc2)[C@@H]2C(=CC(=O)[C@H]2CC(=O)C(=O)N(C)C)CN1C(=O)c1ccccc1"
Ans: 0.156

###

Experiment: CREB reporter modulators without forskolin, primary screen, cell-based, PC12, CRE-LacZ reporter, unstimulated (AID 1145)
Details: no forskolin, luminescence, 4.5 h, higher = more signal, called active from +8 up or from −8 down
z-score of 0.05 or higher: class 1. Under 0.05: class 0.

compound	label
COC(=O)C(CC#Cc1ccc2c(c1)[C@]1(C(=O)N2)[C@H](C(=O)N2CCN(c3ncccn3)CC2)[C@H]2C(=O)O[C@H](c3ccccc3)[C@H](c3ccccc3)N2[C@@H]1c1ccc(OCCO)cc1)C(=O)OC	class 0
O=C1C2C=CC(C(O)c3ccc(Br)cc3)N(Nc3ccccc3F)C2C(=O)N1c1ccccc1 (configuration not stated)	class 0
COc1ccc(NC(=O)O[C@H]2[C@H](OC(=O)Nc3ccccc3)[C@@H](OC(=O)Nc3ccccc3)[C@@H](OC)O[C@@H]2CO)cc1	class 1

Q: Has C=CCC(OC(C)=O)[C@@H]1[C@@H](N(Cc2cccc3ccccc23)C(=O)Cc2ccc(OC)cc2)c2cc(OCCCO)ccc2N1C(=O)c1ccc2ccccc2n1 (some centres not stated) a recorded z-score greater than or equal to 0.05?
Ans: class 0

Q: Has "COc1ccc(CN(C2=CC[C@@]3(C(N)=O)C(=O)C(Cl)=C(Cl)C(=O)[C@@]3(C#N)C2)S(=O)(=O)c2ccc(Br)cc2)cc1" a recorded z-score greater than or equal to 0.05?
Ans: class 1

Q: Has "C=CCOC(=O)[C@H]1[C@@H]2C(=O)O[C@@H](c3ccccc3)[C@@H](c3ccccc3)N2[C@@H](c2ccc(OCCOC(=O)[C@@H]3C[C@@H]4C(=O)N[C@@H](CCCCN(C)C)C(=O)N4[C@@H]3c3ccc(O)cc3)cc2)[C@]12C(=O)Nc1ccccc12" a recorded z-score greater than or equal to 0.05?
Ans: class 1

Q: Has CN1C(=O)C2C=CC(C(O)COCc3ccccc3)N(N(c3ccccc3)c3ccccc3)C2C1=O (configuration not stated) a recorded z-score greater than or equal to 0.05?
Ans: class 0

Q: Has O=C1NC(=O)C2C1C=CC(C(O)CCc1ccccc1)N2Nc1ccc(Cl)cc1Cl (configuration not stated) a recorded z-score greater than or equal to 0.05?
Ans: class 1

Q: Has "COc1ccc([Si](C)(C)[C@@H]2[C@@H](CC(=O)N3Cc4ccccc4C[C@H]3CO)O[C@]3(C(=O)N(Cc4cccc(N5C(=O)c6cccc7cccc5c67)c4)c4ccccc43)[C@H]2C)cc1" a recorded z-score greater than or equal to 0.05?
Ans: class 1
